Data credit: PubChem BioAssay (NCI)

# Test system: UACC-62 melanoma
# protocol.text: NCI-60 one-dose screen, 48 h
# condition.set: 10 µM unless noted
The panel holds about 83,000 compounds, 20% with a hit somewhere; the sample as a whole holds those more often. Calls of active or inactive are those of the source. The calls were made as follows: active = growth percent below 10; inactive = the rest.
Write down one outcome, taken from 1.0 = active, 0.0 = inactive

The following compounds have reported results that may help.
INSERT INTO assay_data (compound, class_assignment) VALUES
  ('Cc1cc(=O)oc2cc(OCCn3c(C)nn(-c4ccc(Cl)cc4)c3=O)ccc12', 0.0),
  ('O=C(CC1Sc2ccccc2NC1=O)NNc1cccc(Cl)c1Cl (stereo not drawn)', 0.0),
  ('BrC1CC(Br)c2c1c1c(c3c2C(Br)CC3Br)C(Br)CC1Br (stereo not drawn)', 0.0);

So what was the verdict on NS(=O)(=O)c1cc2c(cc1Cl)NC=NS2(=O)=O in this test?
0.0

So what was the verdict on c1ccc(Nc2ccc(Nc3nc(-c4ccccc4)nc4ccccc34)cc2)cc1 in this test?
0.0

So what was the verdict on CC(C)Cn1cnc2c(NCn3nc(-c4cc(Cl)cc(Cl)c4Cl)n(/N=C/c4ccc(Cl)cc4)c3=S)nc3ccccc3c21 in this test?
0.0

So what was the verdict on O=c1c2ccccc2c2nccn2c2cc(Cl)ccc12 in this test?
0.0

So what was the verdict on CC(C)=CCCC(C)c1ccc(C)c2c1OCN(CC1CCNCC1)C2 (stereo not drawn) in this test?
0.0

So what was the verdict on COC(=O)C1CCN(S(=O)(=O)c2ccc(-c3ccccc3)cc2)CC1 in this test?
0.0

So what was the verdict on O=Cc1ncc(-c2ccc(C(F)(F)F)cc2)c(NC2CCCCCC2)n1 in this test?
1.0

---

# Test system: BT-549 breast
# protocol.text: NCI-60 one-dose screen, 48 h
# condition.set: 10 µM unless noted
Compounds without any hit were thinned out: in the full panel of roughly 83,000, 20% have a hit. Active and inactive are the calls of the source. Rule for the calls: active = growth percent below 10; inactive = the rest.
Write down one outcome, taken from yes (active), no (inactive)

The following compounds have reported results that may help.
INSERT INTO measurements (compound, class_assignment) VALUES
  ('CC1CN(C2CCCCC2)C(=O)NC1=O (stereo not given)', 'no'),
  ('Nc1ccc2c(c1)C(=O)c1cc(Cl)c(Cl)cc1-2', 'no');

So what was the verdict on Clc1ccc2c(c1)C(Br)c1cc(Cl)cc(Cl)c1-2 (stereo not given) in this test?
no

So what was the verdict on COc1cnc2c(c1)C(=O)c1c-2n(CCCN2CCNCC2)c(=O)c2cc(F)ccc12 in this test?
yes

So what was the verdict on O=C(Nc1nc2c(C(F)(F)F)cccc2s1)c1cc(Cl)ccc1O in this test?
yes

So what was the verdict on COc1cccc(C2=NN(C(C)=O)C(c3cc(OC)c(OC)c(OC)c3)C2)c1 (stereo not given) in this test?
yes

So what was the verdict on O=C(COc1ccc(/C=C2\Cc3ccccc3C2=O)cc1)c1ccc(Cl)cc1 in this test?
no

So what was the verdict on FC(F)(F)c1ccc(-c2cnc(-c3nn[nH]n3)nc2NC2CCCCCC2)cc1 in this test?
no

So what was the verdict on COc1cc(C2CC(c3ccc(C)cc3)=NN2C=O)ccc1OCCN(C)C (stereo not given) in this test?
no

So what was the verdict on Nc1nc(Nc2ccccc2SSc2ccccc2Nc2nc(N)nc(C(Cl)(Cl)Cl)n2)nc(C(Cl)(Cl)Cl)n1 in this test?
no
